Molecular target: serotonin (5-HT) reuptake (Rattus norvegicus, UniProt P31652)
Construct: synaptosomes are freshly isolated from areas of the rat brain; from tissue; host or cells: rat brain synaptosomes (P2 fraction)
Sequence (P31652 whole entry): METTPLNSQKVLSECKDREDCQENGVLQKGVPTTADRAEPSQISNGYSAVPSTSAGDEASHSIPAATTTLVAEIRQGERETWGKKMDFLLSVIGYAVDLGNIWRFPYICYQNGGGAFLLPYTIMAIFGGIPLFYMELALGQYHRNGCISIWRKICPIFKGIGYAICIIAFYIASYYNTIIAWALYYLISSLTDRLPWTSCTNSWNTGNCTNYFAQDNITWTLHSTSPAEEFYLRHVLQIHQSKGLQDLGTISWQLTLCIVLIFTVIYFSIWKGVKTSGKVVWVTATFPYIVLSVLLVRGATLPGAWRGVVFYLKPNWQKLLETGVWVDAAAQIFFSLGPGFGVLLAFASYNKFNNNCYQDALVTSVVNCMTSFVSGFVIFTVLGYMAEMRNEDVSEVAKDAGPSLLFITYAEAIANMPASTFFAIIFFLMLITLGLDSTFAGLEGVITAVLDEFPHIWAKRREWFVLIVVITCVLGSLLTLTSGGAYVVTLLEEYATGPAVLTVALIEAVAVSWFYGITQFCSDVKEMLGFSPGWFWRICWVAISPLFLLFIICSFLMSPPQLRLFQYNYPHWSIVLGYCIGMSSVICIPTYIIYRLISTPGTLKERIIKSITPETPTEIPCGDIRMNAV
Experiment: Inhibition of serotonin (5HT) reuptake in synaptosomes from rat brain
Assay type: biochemical
Details: test concentration of 10 μM; read-out: 5-HT (inhibition of reuptake of serotonin, % inhibition)
Experimental: Binding data of the compounds on the μ opioid receptor and data on the inhibition of reuptake of serotonin (5-HT) are given in Table 1. The data for the μ receptor were measured at a test concentration of 1 μM, and those for the serotonin reuptake at 10 μM. The values are stated in % inhibition. Inhibition of Serotonin (5HT) Reuptake In order to be able to carry out these in vitro studies, synaptosomes are freshly isolated from areas of the rat brain. […]
Listed next: entries and their corresponding inhibition at 10 µM.
attribute.measured: inhibition at 10 µM (%)

* CN(C)C(c1cccc(F)c1)C1CCC(NC(=O)COC2CCCCC2N(C)S(=O)(=O)c2ccc(Cl)c(Cl)c2)CC1 (stereo not shown) | 83
* Cc1cc(C)c(S(=O)(=O)N2CCC(OCC(=O)NCC3CCC(C(c4cccc(F)c4)N(C)C)CC3)C2)c(C)c1 (stereo not shown) | 80
* COc1ccc(S(=O)(=O)N2Cc3ccccc3CC2COCC(=O)NCC2CCC(C(c3cccs3)N(C)C)CC2)cc1 (stereo not shown) | 92
* CN(C)C(c1cccs1)C1CCC(CCNC(=O)COCCN(C)S(=O)(=O)c2ccc(Cl)cc2Cl)CC1 (stereo not shown) | 91
* COc1cc(C)c(S(=O)(=O)N(C)CCOCC(=O)NCCC2CCC(C(c3cccc(F)c3)N(C)C)CC2)c(C)c1C (stereo not shown) | 93
* COc1cc(C)c(S(=O)(=O)N(C)CCOCC(=O)NCCC2CCC(C(c3cccs3)N(C)C)CC2)c(C)c1 (stereo not shown) | 92
* COc1cc(C)c(S(=O)(=O)N2CCCC(OCC(=O)NCC3CCC(C(c4cccc(F)c4)N(C)C)CC3)C2)c(C)c1C (stereo not shown) | 91
